method.description: Inhibition of bovine brain tubulin polymerization preincubated for 15 mins followed by GTP addition and measured for 20 mins by spectrophotometric method
Design: species or system Bos taurus
pIC50: −log10 of the molar value.
attribute.measured: pIC50

Please review the entries below; each comes with its answer.
>>> obs_value("COc1cc(C2=CCCc3c2ccc(OC)c3OP(=O)(O)O)cc(OC)c1OC")
"< 4.70"
>>> obs_value("COc1cc(C(=O)C2=CCCc3c2ccc(OC)c3OP(=O)([O-])[O-])cc(OC)c1OC.[Na+].[Na+]")
"< 4.70"

q: Query: pIC50; subject: COc1ccc2c(c1O)CCC=C2C(=O)c1cc(OC)c(OC)c(OC)c1
a: 5.92

Ref: ChEMBL document CHEMBL4257558
